Measured Purity after 1 week accompanies every entry in the list below.
Test: Stability under a high temperature/humidity condition (HPLC purity after aging)
Format: physicochemical
Settings: 60±2° C.; 75±5% relative humidity; 1 week; HPLC
Reply numerically in %, unit not repeated.

CC(=O)O[C@@]12CO[C@@H]1C[C@H](O)[C@@]1(C)C(=O)[C@H](O)C3=C(C)[C@@H](OC(=O)[C@H](O)[C@@H](NC(=O)OC(C)(C)C)c4ccccc4)C[C@@](O)([C@@H](OC(=O)c4ccccc4)[C@H]21)C3(C)C [Example 6, docetaxel] = 99.7
CC(=O)O[C@@]12CO[C@@H]1C[C@H](O)[C@@]1(C)C(=O)[C@H](O)C3=C(C)[C@@H](OC(=O)[C@H](O)[C@@H](NC(=O)OC(C)(C)C)c4ccccc4)C[C@@](O)([C@@H](OC(=O)c4ccccc4)[C@H]21)C3(C)C [Docetaxel trihydrate, docetaxel trihydrate, reference compound] = 99.3

Lab note: next molecule to report on.
Incoming: Form field: reported Purity after 1 week of CC(=O)O[C@@]12CO[C@@H]1C[C@H](O)[C@@]1(C)C(=O)[C@H](O)C3=C(C)[C@@H](OC(=O)[C@H](O)[C@@H](NC(=O)OC(C)(C)C)c4ccccc4)C[C@@](O)([C@@H](OC(=O)c4ccccc4)[C@H]21)C3(C)C [Example 5, docetaxel]
Outgoing: 99.7

These entries and their values trace back to patent US20100099897A1.
